Just for reference, ChEMBL document CHEMBL4706543 is where these values come from.

Would you kindly list Ratio IC50 for each of these molecules?
Species on record: Homo sapiens
TEST METHOD NOTES: Selectivity ratio of IC50 for inhibition of integrin alphavbeta3 (unknown origin) to IC50 for inhibition of integrin alphavbeta5 (unknown origin)

Below are worked cases with known answers.
O=C(O)C[C@H](C(=O)N1CC[C@@H](CCc2ccc3c(n2)NCCC3)C1)c1ccc(Br)cc1; 200
O=C(O)C[C@H](C(=O)N1CC[C@@H](CCc2ccc3c(n2)NCCC3)C1)c1cccs1; 160
N#Cc1cccc([C@H](CC(=O)O)C(=O)N2CC[C@@H](CCc3ccc4c(n3)NCCC4)C2)c1; 160
O=C(O)C[C@H](C(=O)N1CC[C@@H](CCc2ccc3c(n2)NCCC3)C1)c1ccsc1; 125
O=C(O)C[C@H](C(=O)N1CC[C@@H](CCc2ccc3c(n2)NCCC3)C1)c1cccc(Cl)c1; 400

Report Ratio IC50 for every entry below.
1. O=C(O)C[C@H](C(=O)N1CC[C@@H](CCc2ccc3c(n2)NCCC3)C1)c1cccc(O)c1
2. O=C(O)C[C@H](C(=O)N1CC[C@@H](CCc2ccc3c(n2)NCCC3)C1)c1cccc(Br)c1
3. CNc1cccc(CCOc2ccc3c(ccn3CCC(=O)O)c2)n1
4. Cc1ccc([C@H](CC(=O)O)C(=O)N2CC[C@@H](CCc3ccc4c(n3)NCCC4)C2)s1
5. Cc1cc(C)cc([C@H](CC(=O)O)C(=O)N2CC[C@@H](CCc3ccc4c(n3)NCCC4)C2)c1

Ans:
40
200
4
25
400
